Exercise: for every item that follows, state its recorded pKi.
target: Histone deacetylase 2 (Homo sapiens, UniProt Q92769); test: Inhibition of human recombinant HDAC2 by Michaelis-Menten equation analysis
Sequence (Q92769 whole entry): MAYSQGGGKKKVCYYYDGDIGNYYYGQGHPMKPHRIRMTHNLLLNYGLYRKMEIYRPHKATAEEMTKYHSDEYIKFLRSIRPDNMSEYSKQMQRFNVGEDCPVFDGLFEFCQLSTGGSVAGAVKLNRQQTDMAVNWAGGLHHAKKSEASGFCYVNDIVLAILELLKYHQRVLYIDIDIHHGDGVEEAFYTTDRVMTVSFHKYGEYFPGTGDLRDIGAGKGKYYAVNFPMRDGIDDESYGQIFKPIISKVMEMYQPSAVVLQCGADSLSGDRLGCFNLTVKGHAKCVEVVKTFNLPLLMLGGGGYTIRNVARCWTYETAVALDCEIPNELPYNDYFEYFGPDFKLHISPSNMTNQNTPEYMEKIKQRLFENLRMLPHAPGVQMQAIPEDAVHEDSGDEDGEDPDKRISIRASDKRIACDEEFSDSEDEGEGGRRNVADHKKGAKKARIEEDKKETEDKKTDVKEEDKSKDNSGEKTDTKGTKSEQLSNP
Please express pKi as -log10 of the molar concentration.

Record COc1ccc(OC)c(-c2cccc(O)c(=O)c2)c1 . Reported pKi: 9.29

Record CC(C)(C)c1cccc(O)c(=O)c1 . Reported pKi: 9.89

Record O=c1c(O)ccccc1-c1ccc2ccccc2c1 . Reported pKi: 9.60

Record COc1ccc(-c2ccccc(O)c2=O)cc1 . Reported pKi: 9.09

Record O=c1cc(-c2ccccc2)cccc1O . Reported pKi: 10.22

Record COc1ccc(-c2cccc(O)c(=O)c2)cc1 . Reported pKi: 9.92

Record COc1ccc(-c2ccccc(O)c2=O)c(OC)c1OC . Reported pKi: 9.64
